Source: paper PMC4336329

target: human ether-à-go-go-related gene (hERG) potassium channel (human, UniProt Q12809); assay: primary screen, population patch clamp on CHO cells stably expressing hERG; higher = less effect of the substance;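 also: peak tail current of the secondary pulse compared with the same well before compound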
Sequence (Q12809 whole entry, looked up): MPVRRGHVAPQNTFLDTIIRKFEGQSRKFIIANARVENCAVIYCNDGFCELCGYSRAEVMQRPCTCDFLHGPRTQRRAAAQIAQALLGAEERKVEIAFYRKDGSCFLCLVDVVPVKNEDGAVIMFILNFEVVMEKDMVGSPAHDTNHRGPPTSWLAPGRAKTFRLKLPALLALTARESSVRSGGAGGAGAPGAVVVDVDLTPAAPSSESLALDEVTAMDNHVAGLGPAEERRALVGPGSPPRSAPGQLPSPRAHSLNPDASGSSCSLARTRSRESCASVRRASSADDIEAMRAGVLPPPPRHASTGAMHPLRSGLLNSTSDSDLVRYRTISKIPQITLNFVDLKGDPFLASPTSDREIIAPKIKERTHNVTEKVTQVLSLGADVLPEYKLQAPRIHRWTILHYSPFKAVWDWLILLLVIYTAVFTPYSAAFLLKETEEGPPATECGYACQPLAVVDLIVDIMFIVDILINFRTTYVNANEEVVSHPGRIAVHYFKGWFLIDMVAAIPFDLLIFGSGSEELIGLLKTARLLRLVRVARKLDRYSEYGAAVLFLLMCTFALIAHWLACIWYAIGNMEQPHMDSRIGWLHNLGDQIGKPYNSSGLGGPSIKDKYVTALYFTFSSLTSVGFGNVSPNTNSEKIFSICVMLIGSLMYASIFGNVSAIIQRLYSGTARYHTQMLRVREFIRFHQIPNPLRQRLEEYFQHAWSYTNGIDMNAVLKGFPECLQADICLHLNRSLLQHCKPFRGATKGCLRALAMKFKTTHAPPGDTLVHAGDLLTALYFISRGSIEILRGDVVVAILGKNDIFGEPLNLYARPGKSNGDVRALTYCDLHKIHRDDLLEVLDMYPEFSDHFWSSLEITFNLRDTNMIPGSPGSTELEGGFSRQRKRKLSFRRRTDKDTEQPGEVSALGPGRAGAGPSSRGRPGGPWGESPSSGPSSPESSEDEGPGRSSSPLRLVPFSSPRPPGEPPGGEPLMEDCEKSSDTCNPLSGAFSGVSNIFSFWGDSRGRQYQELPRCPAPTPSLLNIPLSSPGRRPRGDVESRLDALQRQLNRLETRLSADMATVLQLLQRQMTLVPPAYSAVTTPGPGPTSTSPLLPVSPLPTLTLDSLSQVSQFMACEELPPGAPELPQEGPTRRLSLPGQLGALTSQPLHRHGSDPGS
Hit rate of the full screen: of about 310,000 compounds, about 14,000 (4.5%) showed an effect of 50% or more. The effect is printed as a negative number. Many of the other results were omitted from the sample, so strong results are more common in it than they were.
Assay readout: hERG current change (%, negative = inhibition) at 10uM (%)
Give bare numbers, in %.

Study these solved cases before continuing.
O=C(NCc1ccccc1)C1=C[C@@H](c2ccccc2)C[C@@H](OCc2ccc(CO)cc2)O1
-14.4
COc1ccccc1NC(=O)CN1CC(=O)Nc2ccccc21
20.5
O=C(COC(=O)C1CCN(c2ccc(C(F)(F)F)cn2)CC1)Nc1ccc(F)cc1[N+](=O)[O-]
13
COc1ccc(CC(=O)Nc2cc(C)ccn2)cc1
6.87

Value of hERG current change (%, negative = inhibition) at 10uM reported for the compound COc1cccc(-c2nc(CS(=O)CC(=O)NCc3ccccc3)c(C)o2)c1 (centres unmarked) is -6.07
